FYI, the data here is from BindingDB's records for patent US20240116922.

molecular target: Interleukin-1 receptor-associated kinase 4 (Homo sapiens, UniProt Q9NWZ3)
Sequence (Q9NWZ3 whole entry): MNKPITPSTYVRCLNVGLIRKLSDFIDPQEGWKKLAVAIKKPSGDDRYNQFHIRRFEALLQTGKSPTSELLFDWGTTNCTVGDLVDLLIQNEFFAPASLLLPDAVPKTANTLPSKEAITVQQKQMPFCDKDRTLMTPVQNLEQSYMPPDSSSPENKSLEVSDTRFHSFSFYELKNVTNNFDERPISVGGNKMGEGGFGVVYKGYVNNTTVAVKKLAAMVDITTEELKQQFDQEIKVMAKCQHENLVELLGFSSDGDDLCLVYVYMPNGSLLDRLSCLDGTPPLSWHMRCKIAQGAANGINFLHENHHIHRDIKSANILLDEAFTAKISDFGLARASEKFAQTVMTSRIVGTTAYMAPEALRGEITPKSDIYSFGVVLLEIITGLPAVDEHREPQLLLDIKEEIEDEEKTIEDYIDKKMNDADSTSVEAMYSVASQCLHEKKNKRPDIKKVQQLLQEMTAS

Molecule Smiles | IC50, nM
CC(C)Oc1cc2nc(C34COC(C)(C3)C4)cn2cc1C(=O)Nc1ccnn(C2CC2)c1=O | 1.6
